# System: WPMY1-CANX-COX4
# Test name: phenotypically active (imaging signature differs from DMSO and reproducible) at any of 0.3-9 uM (binary (1 = active, 0 = inactive)); higher = active
# Test conditions: treatment time: 24 h
We begin with a simple list: items and their reported phenotypically active.
Answer with a bare number; do not write a unit.

phenotypically active lookup needed for OCc1ccccc1O[C@@H]1O[C@H](CO)[C@@H](O)[C@H](O)[C@H]1O [Salicin] , thanks.
0

Entry `COc1cc(NC(=O)c2cccc(-n3cc(NC(=O)Nc4cccc(C)c4)cn3)c2)cc(OC)c1OC` : reported phenotypically active = ?
0

Entry COc1cc2c(cc1OC)C(=O)C(CC1CCN(Cc3ccccc3)CC1)C2 (stereo not drawn) [donepezil] : reported phenotypically active = ?
0

Recorded phenotypically active for CC(CN1c2ccccc2Sc2ccccc21)N(C)C (stereo not drawn) [promethazine] , please?
0

Quick one: phenotypically active for CC[N+](CC)(CCNC(=O)C(=O)NCC[N+](CC)(CC)Cc1ccccc1Cl)Cc1ccccc1Cl [ambenonium] ?
0

// returns reported phenotypically active for input `Cn1cc(C2=C(c3ccc(Cl)cc3Cl)C(=O)NC2=O)c2ccccc21`
1

----------
Measured phenotypically active of individual entries
# Tested on: WPMY1-CANX-COX4
# Test name: phenotypically active (imaging signature differs from DMSO and reproducible) at any of 0.3-9 uM (binary (1 = active, 0 = inactive)); higher = active
# Test conditions: treatment time: 24 h
Where a name gives a salt, the structure may show the parent alone.
Answer using only a numeral; do not append any unit.

Reference set (3 entries):
// phenotypically active lookup, key: CC1CNCCN1S(=O)(=O)c1cccc2cnccc12 (centres undefined) [H-7 dihydrochloride]
1

Fill in: phenotypically active of CC[C@H](Nc1ncnc2[nH]cnc12)c1nc2cccc(F)c2c(=O)n1-c1ccccc1 [idelalisib] is ___
0

Which phenotypically active reading was recorded for the compound `COCC(=O)N[C@@H](Cc1ccc(-c2cc(Cl)cc(Cl)c2)cc1)[C@H](O)[C@@H](O)C(=O)O` ?
0

---
What value of phenotypically active has been reported for the following compound? `O=C(Nc1cccnc1)N1CCC(Cc2cccc(Oc3ccc(C(F)(F)F)cn3)c2)CC1`
0

Query: phenotypically active; subject: O=C(CCCN1CCC(O)(c2ccc(Cl)cc2)CC1)c1ccc(F)cc1 [haloperidol]
0

What phenotypically active value was documented for this compound, CCC(NC(C)C)C(O)c1ccc(O)c(O)c1 (centres undefined) [isoetharine] ?
0

Entry COc1ccc(C[C@@H]2c3cc(OC)c(OC)cc3CC[N@+]2(C)CCC(=O)OCCCCCOC(=O)CC[N@@+]2(C)CCc3cc(OC)c(OC)cc3[C@H]2Cc2ccc(OC)c(OC)c2)cc1OC [Cisatracurium besylate] has what phenotypically active?
0

Can you look up the measured phenotypically active of C[C@H]1O[C@H](O[C@H]2[C@H](O)[C@@H](O)[C@@H](O[C@H]3[C@H](O)[C@@H](O)[C@H](O)O[C@@H]3CO)O[C@@H]2CO)[C@H](O)[C@@H](O)[C@@H]1N[C@H]1C=C(CO)[C@@H](O)[C@H](O)[C@H]1O [Acarbose] for me?
0

Could you share which phenotypically active value was measured for CC(C)c1cc(-c2n[nH]c(=O)n2-c2ccc3c(ccn3C)c2)c(O)cc1O [ganetespib] ?
1

Give the measured phenotypically active of COC(=O)/C=C/c1cccc(N(Cc2ccc(-c3ccc(N(C)C)cc3)cc2)C(=O)C2CCCCC2)c1 [fexaramine] .
0

Any idea what phenotypically active was measured for C=CCc1ccccc1OC[C@@H](O)CNC(C)C [Alprenolol hydrochloride] ?
0

What phenotypically active value was documented for this compound, CCCNC(C)C(=O)Nc1c(C)csc1C(=O)OC (centres undefined) [articaine] ?
0

State the recorded phenotypically active for this entry: O=S(c1ccccc1)c1ccc2nnnn2n1 (centres undefined)
1

Which measured phenotypically active value corresponds to `COc1ccc(S(=O)(=O)Nc2cccnc2Nc2ccc(O)cc2)cc1` ?
1

Find the recorded phenotypically active belonging to `O=C(Nc1ccccc1)N1CCN(c2nc(-c3ccccc3)ns2)CC1` and report it.
0

For CC(C)(C)NC[C@H](O)c1ccc(O)c(CO)c1 [levalbuterol] , what is its reported phenotypically active?
0

For the compound Cn1cnc(N)c2ncnc1-2 [3-Methyladenine] , what phenotypically active is on record?
0

Quick one: phenotypically active for CN(C)CCOC(c1ccccc1)c1ccccc1 [diphenhydramine] ?
1

----------
# System: A549-GM130-SQSTM1
# Test name: phenotypically active (imaging signature differs from DMSO and reproducible) at any of 0.3-9 uM (binary (1 = active, 0 = inactive)); higher = active
# Test conditions: treatment time: 24 h
Readings of phenotypically active for the listed compounds
Reply with the value as a number alone.

Examples from the recorded data:
Form field: reported phenotypically active of `Cc1ccc(Nc2nnc(-c3ccc([N+](=O)[O-])cc3)o2)cc1Cl`
0

Any idea what its phenotypically active is? The compound is CNC(=O)c1ccccc1Sc1ccc2c(/C=C/c3ccccn3)n[nH]c2c1 [Axitinib]
1

// query phenotypically active value for entry CN1C(=O)CC(C)(c2ccccc2)C1=O (centres undefined) [methsuximide]
0

***
I have this compound here, CC(=O)OC(C)C[N+](C)(C)C (centres undefined) [methacholine] , and I need its recorded phenotypically active.
0

What measured phenotypically active goes with NS(=O)(=O)c1cc(C2(O)NC(=O)c3ccccc32)ccc1Cl (centres undefined) [chlorthalidone] ?
0

Which phenotypically active is reported for this compound? C[N+](C)(C)CC[N+]1(C)Cc2c(Cl)c(Cl)c(Cl)c(Cl)c2C1 [Chlorisondamine diiodide]
0

----------
# Tested on: A549-GM130-SQSTM1
# Test name: phenotypically active (imaging signature differs from DMSO and reproducible) at any of 0.3-9 uM (binary (1 = active, 0 = inactive)); higher = active
# Test conditions: treatment time: 24 h
Counter-ions that a name gives are not always drawn.
Entries and their measured phenotypically active follow.

Example results:
# lookup: phenotypically active of `Cc1cccc(Nc2ccccc2C(=O)O)c1C`
0 (inactive)

Which phenotypically active is listed for `OC[C@H]1NC[C@H](O)[C@@H](O)[C@@H]1O` ?
0 (inactive)

Look up phenotypically active: `CO[C@H]1C[C@@H]2CC[C@@H](C)[C@@](O)(O2)C(=O)C(=O)N2CCCC[C@H]2C(=O)O[C@H]([C@H](C)C[C@@H]2CC[C@@H](OC(=O)C(C)(CO)CO)[C@H](OC)C2)CC(=O)[C@H](C)C=C(C)[C@@H](O)[C@@H](OC)C(=O)[C@H](C)C[C@H](C)C=CC=CC=C1C`
1 (active)

Fill in: phenotypically active of CC(C)(C(=O)O)c1ccc(C(O)CCCN2CCC(C(O)(c3ccccc3)c3ccccc3)CC2)cc1 (stereo not given) [fexofenadine] is ___
0 (inactive)

Given the compound `CCCCCCCCCCCCC/C=C/[C@@H](O)[C@H](CO)N(C)C` , what is its reported phenotypically active?
1 (active)

Consider the compound O=P(O)(O)C(O)(Cc1cccnc1)P(=O)(O)O [risedronate] and give its measured phenotypically active.
0 (inactive)

Continue with the compound presented below.
Entry under review: Cc1cccc(CN2CCN(C(c3ccccc3)c3ccc(Cl)cc3)CC2)c1 (stereo not given) [Meclizine dihydrochloride] . Reported phenotypically active?
0 (inactive)

----------
# Test system: WPMY1-TUBA1B-RELA
# Test name: lowest phenotypically active concentration; higher = less potent
# Test conditions: treatment time: 24 h
// lowest phenotypically active concentration lookup, one value per entry
Just the number in µM, nothing appended.

For the record `C=CC(=O)N1CCC[C@@H](n2nc(-c3cccc(C(=O)Nc4ccc(C(C)C)c(C)c4)c3)c3c(N)ncnc32)C1` , what value of lowest phenotypically active concentration is listed for WPMY1-TUBA1B-RELA?
3

Hi! What's the reported lowest phenotypically active concentration for `COc1ccc(S(=O)(=O)ON=C2C=C(C)C(=O)C(C)=C2)cc1` on WPMY1-TUBA1B-RELA?
9

Value wanted: lowest phenotypically active concentration (WPMY1-TUBA1B-RELA) of entry `COc1c(C=O)c(O)cc2c1C(=O)c1ccccc1C2=O`
9

Query for WPMY1-TUBA1B-RELA: what lowest phenotypically active concentration does the record show for `C[C@@H]1CN(CC(=O)Nc2ccc3c(c2)Cc2cccc(-c4cc(=O)cc(N5CCOCC5)o4)c2S3)C[C@H](C)O1` ?
9

// fetch WPMY1-TUBA1B-RELA lowest phenotypically active concentration for `Cc1c(C(=O)N2CCOc3ccc(-c4ccc(N)nc4)cc3C2)ccc(S(C)(=O)=O)c1F`
9

Any idea what lowest phenotypically active concentration came out for `NC1(C(=O)N[C@@H](CCO)c2ccc(Cl)cc2)CCN(c2ncnc3[nH]ccc23)CC1` on WPMY1-TUBA1B-RELA?
1

----------
# Test system: A549-TP53BP1-CLTA
# Test name: phenotypically active (imaging signature differs from DMSO and reproducible) at any of 0.3-9 uM (binary (1 = active, 0 = inactive)); higher = active
# Test conditions: treatment time: 24 h
Counter-ions that a name gives are not always drawn.
Pick one: active, inactive

Hello, I am checking results. What call was entered for COC(=O)[C@H]1[C@H]2C[C@H]3c4[nH]c5ccccc5c4CCN3C[C@H]2CC[C@@H]1O [Rauwolscine hydrochloride] ?
inactive

Test call, this compound: CC[C@H](CO)Nc1nc(Nc2cccc(-c3ccccn3)c2)c2ncn(C(C)C)c2n1 [(R)-DRF053 dihydrochloride]
inactive

Record request — test call for `CCOc1cc(N2CCC(O)CC2)ccc1Nc1ncc2c(n1)N(C)c1ccccc1C(=O)N2C`
active

Further cases:
Called result for CC(C)(C)c1ccc(C(O)CCCN2CCC(C(O)(c3ccccc3)c3ccccc3)CC2)cc1 (centres undefined) [terfenadine]
inactive

Which result was noted for this compound in the test: O=S(=O)(N[C@H](CO)C(C(F)(F)F)C(F)(F)F)c1ccc(Cl)s1 [begacestat]
inactive

How did this test come out for CCCCCCCCCCCCC/C=C/[C@@H](O)[C@H](CO)N(C)C [N,N-Dimethylsphingosine] ?
inactive

Dear colleague, could you share the recorded outcome for `Cc1cc(C)nc(SCC(=O)Nc2ncc(Cc3cccc4ccccc34)s2)n1` when you have a moment?
inactive

Outcome logged for `CCOP(=O)(OCC)C(=Cc1cc(C(C)(C)C)c(O)c(C(C)(C)C)c1)P(=O)(OCC)OCC` in this assay:
inactive

Hi, do you know how `O=C(COc1cccc2c(=O)[nH]ccc12)c1ccccc1` came out in this test?
inactive

Provenance of the data: the supplement of paper PMC7411054
